// provenance: patent US20220016102A1

Please provide measured DC50 for the entries that follow.
Target: UniProt P03372
Assay: Western blotting analysis of ER protein degradation in T47D cell line
Assay type: cell-based
Parameters: western blotting detection of the level of intracellular ER protein; endogenous in cells; host or cells: T47D
Settings: degradation of ER protein, T47D cells, drug treatment for 16 hours, Western blot gray values vs DMSO control; read-out: DC50 (nM)/T47Dcell line
Method: T47D cells were cultured in an incubator with 5% CO2 at 37° C. Complete medium was RPMI1640 supplemented with 10% Foetal bovine serum (FBS), 100 U/ml Penicillin and Streptomycin, and 0.77 μg/mL recombinant human insulin. […]

Example molecules with recorded DC50:
CN(CCOc1ccc(/C(=C(/CCCl)c2ccccc2)c2ccccc2)cc1)C(=O)CCN1CCN(CCNc2cccc3c2C(=O)N(C2CCC(=O)NC2=O)C3=O)CC1 (centres unmarked) [SIAIS208135] : < 200 nM
Cc1ncsc1-c1ccc(CNC(=O)[C@@H]2C[C@@H](O)CN2C(=O)[C@@H](NC(=O)CCCCC(=O)N2CCN(CCOc3ccc(C(=C(CCCl)c4ccccc4)c4ccc(O)cc4)cc3)CC2)C(C)(C)C)cc1 [SIAIS251043] : < 50 nM
Cc1ncsc1-c1ccc(CNC(=O)[C@@H]2C[C@@H](O)CN2C(=O)[C@@H](NC(=O)CCC(=O)NCCOc2ccc(C(=C(CCCl)c3ccccc3)c3ccc(O)cc3)cc2)C(C)(C)C)cc1 [SIAIS208020] : < 10 nM
Cc1ncsc1-c1ccc(CNC(=O)[C@@H]2C[C@@H](O)CN2C(=O)[C@@H](NC(=O)CCCC(=O)NCCOc2ccc(C(=C(CCCl)c3ccccc3)c3ccc(O)cc3)cc2)C(C)(C)C)cc1 [SIAIS208031] : < 100 nM

Query molecule follows.
Look up DC50 for this molecule: Cc1ncsc1-c1ccc(CNC(=O)[C@@H]2C[C@@H](O)CN2C(=O)[C@@H](NC(=O)CCCCCC(=O)NCCOc2ccc(C(=C(CCCl)c3ccccc3)c3ccc(O)cc3)cc2)C(C)(C)C)cc1 [SIAIS208033]
< 10 nM

====

Molecular target: ER protein (Homo sapiens)
Test: Western blotting analysis of ER protein degradation in T47D cell line
Assay type: cell-based
Set-up: western blotting detection of the level of intracellular ER protein; endogenous in cells; host or cells: T47D
Settings: degradation of ER protein, T47D cells, drug treatment for 16 hours, Western blot gray values vs DMSO control; read-out: DC50 (nM)/T47Dcell line
For each entry below, report its DC50 value.

Cc1ncsc1-c1ccc(CNC(=O)[C@@H]2C[C@@H](O)CN2C(=O)[C@@H](NC(=O)CCCCCC(=O)N(C)CCOc2ccc(/C(=C(/CCCl)c3ccccc3)c3ccccc3)cc2)C(C)(C)C)cc1 : 100 nM
Cc1ncsc1-c1ccc(CNC(=O)[C@@H]2C[C@@H](O)CN2C(=O)[C@@H](NC(=O)CCOCCOCCC(=O)NCCOc2ccc(C(=C(CCCl)c3ccccc3)c3ccc(O)cc3)cc2)C(C)(C)C)cc1 : < 50 nM
Cc1ncsc1-c1ccc(CNC(=O)[C@@H]2C[C@@H](O)CN2C(=O)[C@@H](NC(=O)CCOCCOCCOCCOCCC(=O)N(C)CCOc2ccc(/C(=C(/CCCl)c3ccccc3)c3ccccc3)cc2)C(C)(C)C)cc1 : < 50 nM
Cc1ncsc1-c1ccc(CNC(=O)[C@@H]2C[C@@H](O)CN2C(=O)[C@@H](NC(=O)CCCCCCCCCC(=O)NCCOc2ccc(C(=C(CCCl)c3ccccc3)c3ccc(O)cc3)cc2)C(C)(C)C)cc1 : < 10 nM
Cc1ncsc1-c1ccc(CNC(=O)[C@@H]2C[C@@H](O)CN2C(=O)[C@@H](NC(=O)CCOCCOCCC(=O)N(C)CCOc2ccc(/C(=C(/CCCl)c3ccccc3)c3ccccc3)cc2)C(C)(C)C)cc1 : < 50 nM
Cc1ncsc1-c1ccc(CNC(=O)[C@@H]2C[C@@H](O)CN2C(=O)[C@@H](NC(=O)CCCC(=O)N2CCN(CCOc3ccc(C(=C(CCCl)c4ccccc4)c4ccc(O)cc4)cc3)CC2)C(C)(C)C)cc1 : < 50 nM
Cc1ncsc1-c1ccc(CNC(=O)[C@@H]2C[C@@H](O)CN2C(=O)[C@@H](NC(=O)CCOCCOCCC(=O)N2CCN(CCOc3ccc(C(=C(CCCl)c4ccccc4)c4ccc(O)cc4)cc3)CC2)C(C)(C)C)cc1 : < 50 nM

Query molecule follows.
Query: DC50; subject: "Cc1ncsc1-c1ccc(CNC(=O)[C@@H]2C[C@@H](O)CN2C(=O)[C@@H](NC(=O)CCc2ccc(CCC(=O)N(C)CCOc3ccc(/C(=C(/CCCl)c4ccccc4)c4ccccc4)cc3)cc2)C(C)(C)C)cc1"
< 200 nM

====

For each entry below, report its DC50 value.
Biological target: ER protein (Homo sapiens, UniProt P03372)
Sequence (P03372 whole entry): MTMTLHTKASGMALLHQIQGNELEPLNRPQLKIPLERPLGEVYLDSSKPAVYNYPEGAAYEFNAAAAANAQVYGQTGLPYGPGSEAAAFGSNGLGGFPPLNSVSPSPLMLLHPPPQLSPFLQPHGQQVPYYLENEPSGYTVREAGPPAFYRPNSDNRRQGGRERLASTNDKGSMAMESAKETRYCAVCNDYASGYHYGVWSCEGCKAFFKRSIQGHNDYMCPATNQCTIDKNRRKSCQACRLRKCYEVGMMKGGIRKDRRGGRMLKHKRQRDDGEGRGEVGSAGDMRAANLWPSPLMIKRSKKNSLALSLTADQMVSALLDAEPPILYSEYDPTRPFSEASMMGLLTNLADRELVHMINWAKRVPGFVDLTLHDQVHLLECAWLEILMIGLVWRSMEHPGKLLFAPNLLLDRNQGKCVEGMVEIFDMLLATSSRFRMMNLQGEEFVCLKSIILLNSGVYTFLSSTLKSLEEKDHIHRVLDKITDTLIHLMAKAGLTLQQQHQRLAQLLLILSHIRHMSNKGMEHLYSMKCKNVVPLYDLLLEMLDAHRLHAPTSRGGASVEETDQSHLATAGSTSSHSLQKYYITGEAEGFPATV
Assay: Western blotting analysis of ER protein degradation in T47D cell line
Type: cell-based
Parameters: western blotting detection of the level of intracellular ER protein; endogenous in cells; host or cells: T47D
Conditions: degradation of ER protein, T47D cells, drug treatment for 16 hours, Western blot gray values vs DMSO control; read-out: DC50 (nM)/T47Dcell line

Here's what some known entries look like.
Cc1ncsc1-c1ccc(CNC(=O)[C@@H]2C[C@@H](O)CN2C(=O)[C@@H](NC(=O)CCCCCCCCCCCCCCC(=O)NCCOc2ccc(C(=C(CCCl)c3ccccc3)c3ccc(O)cc3)cc2)C(C)(C)C)cc1 : < 50 nM
CCC(=C(c1ccc(O)cc1)c1ccc(OCCNC(=O)CCCCCCCCCC(=O)N[C@H](C(=O)N2C[C@H](O)C[C@H]2C(=O)NCc2ccc(-c3scnc3C)cc2)C(C)(C)C)cc1)c1ccc(O)cc1 : < 50 nM

Below are some molecules; for each one, tell me its DC50.
1. Cc1ncsc1-c1ccc(CNC(=O)[C@@H]2C[C@@H](O)CN2C(=O)[C@@H](NC(=O)CCCCC(=O)NCCOc2ccc(C(=C(CCCl)c3ccccc3)c3ccc(O)cc3)cc2)C(C)(C)C)cc1
2. Cc1ncsc1-c1ccc(CNC(=O)[C@@H]2C[C@@H](O)CN2C(=O)[C@@H](NC(=O)CCOCCOCCOCCC(=O)NCCOc2ccc(C(=C(CCCl)c3ccccc3)c3ccc(O)cc3)cc2)C(C)(C)C)cc1

1. < 50 nM
2. < 50 nM

====

Biological target: ER protein (Homo sapiens)
Assay: Western blotting analysis of ER protein degradation in T47D cell line
Format: cell-based
Design: western blotting detection of the level of intracellular ER protein; endogenous in cells; host or cells: T47D
Conditions: degradation of ER protein, T47D cells, drug treatment for 16 hours, Western blot gray values vs DMSO control; read-out: DC50 (nM)/T47Dcell line
QUANTITY: DC50

Cc1ncsc1-c1ccc(CNC(=O)[C@@H]2C[C@@H](O)CN2C(=O)[C@@H](NC(=O)CCCCCCC(=O)NCCOc2ccc(C(=C(CCCl)c3ccccc3)c3ccc(O)cc3)cc2)C(C)(C)C)cc1 : < 10 nM
Cc1ncsc1-c1ccc(CNC(=O)[C@@H]2C[C@@H](O)CN2C(=O)[C@@H](NC(=O)CCOCCOCCOCCOCCOCCC(=O)N(C)CCOc2ccc(/C(=C(/CCCl)c3ccccc3)c3ccccc3)cc2)C(C)(C)C)cc1 : < 50 nM
O=C(CCCCCCNc1cccc2c1C(=O)N(C1CCC(=O)NC1=O)C2=O)NCCOc1ccc(C(=C(CCCl)c2ccccc2)c2ccc(O)cc2)cc1 (stereo not shown) : < 100 nM

Please examine the following record next.
Return reported DC50; argument: "Cc1ncsc1-c1ccc(CNC(=O)[C@@H]2C[C@@H](O)CN2C(=O)[C@@H](NC(=O)CCOCCOCCOCCOCCC(=O)N2CCN(CCOc3ccc(C(=C(CCCl)c4ccccc4)c4ccc(O)cc4)cc3)CC2)C(C)(C)C)cc1"
< 50 nM
